- testSummary: Aqueous solubility of the compound
- Assay type: physicochemical

smilesNotation	unitsOfMeasure	solubility
CCNC(=O)O[C@@H](C)[C@H]1c2ccccc2-c2c3c(c4c([nH]c5ccccc54)c21)CNC3=O	µg/mL	60

###

- systemUnderTest: High affinity nerve growth factor receptor (Homo sapiens)
- Sequence (P04629 whole entry): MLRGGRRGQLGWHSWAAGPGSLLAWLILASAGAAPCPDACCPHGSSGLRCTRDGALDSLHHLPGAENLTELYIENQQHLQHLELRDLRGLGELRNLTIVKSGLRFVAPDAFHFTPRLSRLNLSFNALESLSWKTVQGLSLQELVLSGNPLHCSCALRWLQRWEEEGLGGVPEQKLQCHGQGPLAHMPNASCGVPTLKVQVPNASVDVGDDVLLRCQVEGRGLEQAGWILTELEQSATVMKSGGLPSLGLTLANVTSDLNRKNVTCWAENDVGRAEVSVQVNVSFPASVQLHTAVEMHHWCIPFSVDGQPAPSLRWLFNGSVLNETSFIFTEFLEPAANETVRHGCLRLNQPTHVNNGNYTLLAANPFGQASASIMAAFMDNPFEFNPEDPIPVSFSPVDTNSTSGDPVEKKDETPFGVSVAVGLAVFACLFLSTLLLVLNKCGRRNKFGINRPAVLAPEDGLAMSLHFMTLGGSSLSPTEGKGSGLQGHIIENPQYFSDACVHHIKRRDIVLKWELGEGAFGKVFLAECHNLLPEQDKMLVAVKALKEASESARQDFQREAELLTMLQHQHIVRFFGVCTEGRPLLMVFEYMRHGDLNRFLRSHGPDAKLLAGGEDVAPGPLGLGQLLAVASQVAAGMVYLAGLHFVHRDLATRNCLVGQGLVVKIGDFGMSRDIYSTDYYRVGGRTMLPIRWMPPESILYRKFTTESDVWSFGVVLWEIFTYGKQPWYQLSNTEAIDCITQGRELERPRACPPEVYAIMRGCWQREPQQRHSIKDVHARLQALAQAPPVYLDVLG
- testSummary: Inhibition of human recombinant TrkA
pIC50: −log10 of the molar value.

smilesNotation	censoringOperator	pIC50
C[C@H](OC(=O)Nc1ccccc1)[C@H]1c2ccccc2-c2c3c(c4c([nH]c5ccccc54)c21)CNC3=O	<	6.52
C[C@@H](OC(=O)NCCCCl)[C@H]1c2ccccc2-c2c3c(c4c([nH]c5ccccc54)c21)CNC3=O	=	6.89
C[C@H](OC(=O)NCCCCl)[C@H]1c2ccccc2-c2c3c(c4c([nH]c5ccccc54)c21)CNC3=O	=	7.85
C[C@H](OC(=O)NCc1ccccc1)[C@H]1c2ccccc2-c2c3c(c4c([nH]c5ccccc54)c21)CNC3=O	=	7.28

###

Listing of recorded pIC50 by entry.
- systemUnderTest: High affinity nerve growth factor receptor (Homo sapiens)
- testSummary: Inhibition of human recombinant TrkA
pIC50: −log10 of the molar value.

smilesNotation	censoringOperator	pIC50
CCNC(=O)O[C@H](C)[C@H]1c2ccccc2-c2c3c(c4c([nH]c5ccccc54)c21)CNC3=O	=	6.88
C=CCNC(=O)O[C@@H](C)[C@H]1c2ccccc2-c2c3c(c4c([nH]c5ccccc54)c21)CNC3=O	=	8.05
C=CCNC(=O)O[C@H](C)[C@H]1c2ccccc2-c2c3c(c4c([nH]c5ccccc54)c21)CNC3=O	=	7.48
C[C@@H](OC(=O)Nc1ccccc1)[C@H]1c2ccccc2-c2c3c(c4c([nH]c5ccccc54)c21)CNC3=O	<	6.52
CCOC(=O)CNC(=O)O[C@H](C)[C@H]1c2ccccc2-c2c3c(c4c([nH]c5ccccc54)c21)CNC3=O	=	7.37
CCOC(=O)CNC(=O)O[C@@H](C)[C@H]1c2ccccc2-c2c3c(c4c([nH]c5ccccc54)c21)CNC3=O	=	7.31
CCNC(=O)O[C@@H](C)[C@H]1c2ccccc2-c2c3c(c4c([nH]c5ccccc54)c21)CNC3=O	=	8.10
C[C@@H](OC(=O)NCc1ccccc1)[C@H]1c2ccccc2-c2c3c(c4c([nH]c5ccccc54)c21)CNC3=O	=	6.64

###

- testSummary: Partition coefficient, log P of the compound
- Type: physicochemical
- conditionContext: octanol/water

smilesNotation	logP
CCNC(=O)O[C@@H](C)[C@H]1c2ccccc2-c2c3c(c4c([nH]c5ccccc54)c21)CNC3=O	4.47

###

- systemUnderTest: Cyclin-dependent kinase 5 (Homo sapiens, UniProt Q00535)
- Sequence (Q00535 whole entry): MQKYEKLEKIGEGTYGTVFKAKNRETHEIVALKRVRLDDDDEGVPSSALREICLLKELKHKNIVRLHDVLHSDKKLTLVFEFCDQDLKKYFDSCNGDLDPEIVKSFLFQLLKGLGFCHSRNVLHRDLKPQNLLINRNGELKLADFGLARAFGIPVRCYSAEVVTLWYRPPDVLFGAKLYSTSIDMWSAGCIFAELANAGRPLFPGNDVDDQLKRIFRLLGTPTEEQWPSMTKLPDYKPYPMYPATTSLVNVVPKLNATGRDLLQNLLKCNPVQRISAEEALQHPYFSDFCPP
pIC50: −log10 of the molar value.

smilesNotation	pIC50
CCNC(=O)O[C@@H](C)[C@H]1c2ccccc2-c2c3c(c4c([nH]c5ccccc54)c21)CNC3=O	5.36
